tested on: M14; test: NCI human tumor cell panel; type: cell-based; conditions: M14, read-out: Log10 LC50 (converted)
// CC50 lookup, one value per entry

# count of solved cases: 10
Qu. Please look up its CC50: "OCc1ccc(-c2ccc(-c3ccc[se]3)s2)[se]1"
Ans. > 100 µM

Qu. Please look up its CC50: "O=Cc1ccc(-c2ccc(-c3ccc(C=O)s3)[se]2)s1"
Ans. > 100 µM

Qu. Please look up its CC50: "OCc1ccc(-c2ccc(-c3ccc(CO)[se]3)s2)[se]1"
Ans. > 100 µM

Qu. Please look up its CC50: "O=Cc1ccc(-c2ccc(-c3ccc(C=O)[se]3)s2)s1"
Ans. > 100 µM

Qu. Please look up its CC50: "OCc1ccc(-c2ccc(-c3ccc(CO)s3)[se]2)s1"
Ans. > 100 µM

Qu. Please look up its CC50: "O=Cc1ccc(-c2ccc(-c3cccs3)[se]2)s1"
Ans. > 100 µM

Qu. Please look up its CC50: "OCc1ccc(-c2ccc(-c3cccs3)[se]2)s1"
Ans. > 100 µM

Qu. Please look up its CC50: "O=Cc1ccc(-c2ccc(-c3ccc[se]3)[se]2)[se]1"
Ans. 72.4 µM

Qu. Please look up its CC50: "OCc1ccc(-c2ccc(-c3ccc(CO)[se]3)[se]2)[se]1"
Ans. 49 µM

Qu. Please look up its CC50: "O=Cc1ccc(-c2ccc(-c3ccc(C=O)[se]3)s2)[se]1"
Ans. > 100 µM

Next:
Qu. Please look up its CC50: "O=Cc1ccc(-c2ccc(-c3ccc(C=O)[se]3)[se]2)[se]1"
Ans. > 100 µM

Qu. Please look up its CC50: "OCc1ccc(-c2ccc(-c3ccc[se]3)[se]2)[se]1"
Ans. 61.7 µM

Qu. Please look up its CC50: "OCc1ccc(-c2ccc(-c3ccc(CO)[se]3)s2)s1"
Ans. > 100 µM

meta.source: patent EP1021178B1
